target: BRD4-BD1 (Homo sapiens (Human)); test: BRD4 AlphaScreen assay (BRD4-BD1); settings: biotin-labeled tetra-acetylated histone H4 peptide
observable: IC50

Below are worked cases with known answers.
[[record]]
compound = "COc1cc2c(c(-c3cn(C)c(=O)c4[nH]ncc34)c1)OC(C1CCCC1)C(=O)N2 (centres unmarked) [Example 42]"
observable = "IC50"
value_observed = "≤ 100 nM"

[[record]]
compound = "CC(C)C1Oc2c(cccc2-c2cn(C)c(=O)c3[nH]ccc23)NC1=O (centres unmarked) [Example 2]"
observable = "IC50"
value_observed = "≤ 100 nM"

[[record]]
compound = "Cn1cc(-c2cccc3c2NC(C)(C)C(=O)N3)c2cc[nH]c2c1=O [Example 32]"
observable = "IC50"
value_observed = "100 to 1000 nM"


input: IC50 lookup needed for CC(O)c1cc(-c2cn(C)c(=O)c3[nH]ccc23)c2c(c1)N(C)C(=O)C(C)(C)O2 (single isomer, unassigned) [Example 83B] , thanks.
output: ≤ 100 nM

input: Field entry: CC(=O)c1cc(-c2cn(C)c(=O)c3[nH]ccc23)c2c(c1)N(C)C(=O)C(C)(C)O2 [Example 82]
output: ≤ 100 nM

input: Field entry: CNS(=O)(=O)c1cc2c(c(-c3cn(C)c(=O)c4[nH]ccc34)c1)OC(C(C)C)C(=O)N2 (centres unmarked) [Example 68]
output: ≤ 100 nM

input: Field entry: COc1cc2c(c(-c3cn(C)c(=O)c4[nH]ccc34)c1)OC(c1ccc(F)cc1Cl)C(=O)N2 (centres unmarked) [Example 25]
output: ≤ 100 nM

input: Field entry: Cn1cc(-c2cc(S(C)(=O)=O)cc3c2OC2(CC2)C(=O)N3)c2cn[nH]c2c1=O [Example 65]
output: ≤ 100 nM

====

Quick reference for pIC50 among some molecules
molecular target: BRD4-BD1 (Homo sapiens (Human), UniProt O60885); assay: BRD4 AlphaScreen assay (BRD4-BD1); details: biotin-labeled tetra-acetylated histone H4 peptide
pIC50: −log10 of the molar value.

Below are worked cases with known answers.
[[record]]
molecule = "CC(=O)c1cc2c(c(-c3cn(C)c(=O)c4[nH]ccc34)c1)OC(C(C)C)C(=O)N2 (stereo not shown)"
value_observed = "≥ 7.00"

[[record]]
molecule = "Cn1cc(-c2cc(S(C)(=O)=O)cc3c2OC(C)(C)C(=O)N3)c2cc[nH]c2c1=O"
value_observed = "≥ 7.00"

[[record]]
molecule = "Cn1cc(-c2cc(S(C)(=O)=O)cc3c2OC(c2ccccc2)C(=O)N3)c2cc[nH]c2c1=O (stereo not shown)"
value_observed = "≥ 7.00"

[[record]]
molecule = "Cn1cc(-c2cccc3c2OC2(CC2)C(=O)N3)c2cc[nH]c2c1=O"
value_observed = "≥ 7.00"

[[record]]
molecule = "COc1cc(-c2cn(C)c(=O)c3[nH]ccc23)c2c(c1)N(Cc1ccncc1)C(=O)C(C(C)C)O2 (stereo not shown)"
value_observed = "≥ 7.00"

[[record]]
molecule = "CC(=O)NCc1cc2c(c(-c3cn(C)c(=O)c4[nH]ccc34)c1)OC(C(C)C)C(=O)N2 (stereo not shown)"
value_observed = "≥ 7.00"

[[record]]
molecule = "CC(C)C1Oc2c(cc(C(=O)N3CCOCC3)cc2-c2cn(C)c(=O)c3[nH]ccc23)NC1=O (stereo not shown)"
value_observed = "≥ 7.00"

[[record]]
molecule = "CC(C)C1Oc2c(cc(C(N)=O)cc2-c2cn(C)c(=O)c3[nH]ccc23)NC1=O (stereo not shown)"
value_observed = "≥ 7.00"


Read the next record carefully.
input: pIC50 lookup needed for Cn1cc(-c2cc(S(C)(=O)=O)cc3c2NC2(CCC2)C(=O)N3)c2cc[nH]c2c1=O , thanks.
output: ≥ 7.00
